# Tested on: HL-60(TB) leukemia
# method notes: NCI-60 one-dose screen, 48 h (100 = growth as untreated, 0 = no growth, -100 = all killed)
# assay context: 10 µM unless noted
About 83,000 compounds went through this panel and 20% of them were active in at least one assay; those are over-represented in the sample as a whole.
Could you please mark 1 for values of growth below 90% and -1 for values at or above it?

Reference set (4 entries):
smiles input | class name
Fc1ccc(Nc2ccc3c(OCCCN4CCOCC4)cccc3n2)cc1F | 1
CCCCCc1ccc(C)cc1OC(=O)CCl | -1
COc1ccc(-n2nnnc2-c2cn[nH]c2C(F)(F)F)cc1 | -1
CCCCCCCCCCCCCCCC[N+]1(CC)CCCC1 | 1

Moving on to the next compound.
Regarding "COc1cc2nc(Cl)nc(Nc3cccc(C(=O)/C=C/c4ccccc4)c3)c2cc1OC" , kindly confirm whether its growth is beneath 90%. 1

====

# System: HL-60(TB) leukemia
# method notes: NCI-60 one-dose screen, 48 h (100 = growth as untreated, 0 = no growth, -100 = all killed)
# assay context: 10 µM unless noted
# Protocol: Growth inhibition of the HL-60(TB) human tumor cell line is measured as a screen for anti-cancer activity. Cells are grown in 96 well plates and exposed to the test compound for 48 hours. Compounds are tested at a single concentration, which is 10^-5 M for most compounds. The reported endpoint is percent growth (GI% or GIPRCNT), where numbers from 0 - 100% represent growth inhibition, and numbers from -100% - 0 represent cell death. For example, a value of 40 represents 60% growth inhibition. […]
The panel holds about 83,000 compounds, 20% with a hit somewhere; the sample as a whole holds those more often.
Could you please mark Fulfilled for values of growth below 20% and Not fulfilled for values at or above it?

compound | system name | class name
Cc1cc(O)c(C(C)(C)C)cc1Sc1cc(C(C)(C)C)c(O)cc1C | HL-60(TB) leukemia | Fulfilled
COc1cccc(-c2cc(-c3cccc(NS(C)(=O)=O)c3)nc(N)c2C#N)c1O | HL-60(TB) leukemia | Fulfilled
NS(=O)(=O)c1ccc(CCn2c(SCC(=O)N/N=C/c3cccnc3)nc3ccccc3c2=O)cc1 | HL-60(TB) leukemia | Not fulfilled
N#CC1=C(NC=O)Oc2c(ccc3ccccc23)C1c1ccccc1 (stereo unspecified) | HL-60(TB) leukemia | Fulfilled
Cc1ccc(S(=O)(=O)N/N=C2\CCCc3ccccc32)cc1 | HL-60(TB) leukemia | Not fulfilled

Moving on to the next compound.
Regarding "Cc1ccc(N=c2nc3sc4c(C)ccc(C)c4n3c(N)c2C#N)cc1" , kindly confirm whether its growth is beneath 20%. Not fulfilled

====

Can you tell me growth for the items I'm about to list?
# Tested on: HL-60(TB) leukemia
# method notes: NCI-60 one-dose screen, 48 h (100 = growth as untreated, 0 = no growth, -100 = all killed)
# assay context: 10 µM unless noted
This is part of a sample that, as a whole, favours compounds with a hit. Of some 83,000 tested, about 20% had one in any assay.
Answers are plain numbers, in %.

Use these answered entries as a reference point.
compound | value
O=S(=O)(Nc1ccc(F)cc1)c1ccc(-c2cnc(C3CC3)o2)cc1 | -28.1
C/C=C(\C)C(=O)NC1=CC[C@@]2(C)C(=CCC3C2CC[C@@]2(C)C3CC[C@@H]2C(C)N(C)C)C1=O (some centres not stated) | 8.53
N#Cc1c(Nc2cccc(Cl)c2)sc(C(=O)c2cc3cc(Cl)ccc3o2)c1N | 92.9

# map each compound to its growth
1. CC(C)(CO)N(CCO)CCO
2. O=C(O)c1cccnc1Br
3. Fc1cc(-c2nnc3n2NC(=Nc2ccc(Cl)cc2)CS3)c(Cl)cc1Cl
4. COc1ccc(OC)c(Nc2nc3nonc3nc2Nc2cc(OC)ccc2OC)c1
5. Cc1ccccc1-c1cc(Cc2ccc(F)cc2)c(=O)[nH]n1
6. O=C(O[C@@H]1Cc2c(O)cc(O)cc2O[C@@H]1c1cc(O)c(O)c(O)c1)c1cc(O)c2c(c1)OCO2
7. CCOC(=O)c1c2c(n3ccc(NC(=O)OC(C)(C)C)cc13)C(=O)c1ncccc1C2=O
8. c1ccc2cc(Cn3c(-c4ccc5ccccc5c4)[n+](Cc4ccc5ccccc5c4)c4ccccc43)ccc2c1

1. 103
2. 110
3. 94.1
4. 103
5. 54.2
6. 91.1
7. -34.2
8. -45.9

# map each compound to its growth
1. CCC(C)(c1ccc(O)c(C)c1)c1ccc(O)c(C)c1
2. CC1=C(O)C(=O)CC1
3. Cc1nn(-c2ccccc2)c(/N=C/N(C)C)c1/C=C/C(=O)c1ccc(Cl)cc1
4. COC(=O)C(C(C[N+](=O)[O-])c1ccccc1)=P(c1ccccc1)(c1ccccc1)c1ccccc1 (configuration not stated)
5. c1cnc2ccc3ncccc3c2c1

1. 128
2. 112
3. 76.3
4. 80.5
5. 98.9

Give the value of growth reported for the following: "COC(=O)c1cccc([N+](=O)[O-])c1" 121

====

# Test system: CCRF-CEM leukemia
# method notes: NCI-60 one-dose screen, 48 h (100 = growth as untreated, 0 = no growth, -100 = all killed)
# assay context: 10 µM unless noted
# Protocol: Growth inhibition of the CCRF-CEM human tumor cell line is measured as a screen for anti-cancer activity. Cells are grown in 96 well plates and exposed to the test compound for 48 hours. Compounds are tested at a single concentration, which is 10^-5 M for most compounds. The reported endpoint is percent growth (GI% or GIPRCNT), where numbers from 0 - 100% represent growth inhibition, and numbers from -100% - 0 represent cell death. For example, a value of 40 represents 60% growth inhibition. […]
This is part of a sample that, as a whole, favours compounds with a hit. Of some 83,000 tested, about 20% had one in any assay. Calls of active or inactive are those of the source. Rule for the calls: active = growth percent below 10; inactive = the rest.
measurement kind: growth

Use these answered entries as a reference point.
compound | system name | growth
O=C(N/N=C/c1ccc([N+](=O)[O-])o1)c1cc([N+](=O)[O-])cc([N+](=O)[O-])c1O | CCRF-CEM leukemia | 98.3% (inactive)
N#C[Se]CCCNS(=O)(=O)C1CC2C=CC1C2 (stereo not drawn) | CCRF-CEM leukemia | 17.4% (inactive)
C[C@@H]1CC[C@@H]2[C@@H]1[C@H](OC(=O)/C=C/C1CCCCC1)[C@]1(C3CCCCC3)C[C@@H](OC(=O)CO)[C@@]2(C)O1 | CCRF-CEM leukemia | 41.1% (inactive)
O=[N+]([O-])c1ccc(/C=C/C=C/c2ccc(S(=O)(=O)F)cc2)c(Cl)c1 | CCRF-CEM leukemia | 85.8% (inactive)
COc1cc[c]([Hg][Cl])cc1 | CCRF-CEM leukemia | -20.8% (active)

# map each compound to its growth
1. C=CCC1(CC)C(=O)NC(=S)NC1=O
2. CC(C)(NC(=O)c1nn(CCCCCF)c2ccccc12)c1ccccc1

1: 100% (inactive); 2: 82.5% (inactive)

Give the value of growth reported for the following: CCCCCCCCCCOc1ccc(C(=O)Oc2ccc(CSP3(=O)OCC4OC(n5ccc(=O)[nH]c5=O)C(F)C4OP(=O)(O)OCC4OC(n5cnc6c(N)ncnc65)C(F)C4O3)cc2)cc1 (stereo not drawn) 87.1% (inactive)

====

# System: NCI-H522 lung
# method notes: NCI-60 one-dose screen, 48 h (100 = growth as untreated, 0 = no growth, -100 = all killed)
# assay context: 10 µM unless noted
This is part of a sample that, as a whole, favours compounds with a hit. Of some 83,000 tested, about 20% had one in any assay.
measurement kind: growth (%)
Give bare numbers, in %.

Use these answered entries as a reference point.
compound | value
CC1COC(=O)C1 (configuration not stated) | 99.4
O=C(c1cccs1)C1NO[N+]([O-])=C1c1cccs1 (configuration not stated) | -92.1

# map each compound to its growth
1. N#CC1=C(N)Oc2cc3c(cc2C1c1cccs1)OCO3 (configuration not stated)
2. CC(/C=N/N=C(N)N)=N\N=C(N)N
3. COc1cc(NCCCCCN=C(N)N)c2ncccc2c1
4. CCCCN(CCCC)CC(O)c1ccccc1 (configuration not stated)
5. Cc1ccc(N)cc1[As]=[As]c1cc(N)ccc1C (configuration not stated)

-26
61.5
9.47
112
-88.2

====

# Tested on: HL-60(TB) leukemia
# method notes: NCI-60 one-dose screen, 48 h
# assay context: 10 µM unless noted
About 83,000 compounds went through this panel and 20% of them were active in at least one assay; those are over-represented in the sample as a whole. The source made the active and inactive calls. Rule for the calls: active = growth percent below 10; inactive = the rest.
Please answer using one outcome listed in active, inactive

molecule | class name
N=C1S/C(=C/c2ccc(-c3ccc4c(c3)C(=O)NC4=O)o2)C(=O)N1c1ccc(Br)cc1 | inactive
Clc1ccc(CNc2ccc3nc(CCC4CCCCC4)[nH]c3c2)cc1 | inactive
CC(=O)Nc1ccc(C(=O)CCl)cc1 | active
CCOC(=O)C#Cc1c(C(=O)OCC)nnn1Cc1ccc([N+](=O)[O-])cc1 | inactive
CC(C)(C)c1ccc(OCCCCCCCN2CCNCC2)cc1 | active
O=C(O)c1ccccc1Cc1ccc2c(c1)CCCC2 | inactive

Dear colleague, could you share the recorded outcome for "COc1ccc(CCNC2=CC(=O)CCC2)cc1OC" when you have a moment? inactive

Dear colleague, could you share the recorded outcome for "COc1ccc(Nc2ncc(I)c(NCCCNC(=O)C3CCC3)n2)cc1" when you have a moment? active

Dear colleague, could you share the recorded outcome for "Nc1nc(Nc2ccccc2)c(C=Nc2ccccc2)c(=O)[nH]1" when you have a moment? inactive

Dear colleague, could you share the recorded outcome for CC(C)CC(NC(=O)C(CCCN=C(N)N)NC(=O)OCc1ccccc1)C(=O)NC(CNC(=O)/C=C/c1ccccc1)C(C)C (stereo unspecified) when you have a moment? inactive

Dear colleague, could you share the recorded outcome for "CC(C)CC(=O)Nc1n[nH]c2c1CN(C(=O)C1CCN(C)CC1)C2(C)C" when you have a moment? active
